# Method summary: blood-stage malaria parasite viability loss – strain 3D7, DAPI fluorescence, 100 nL, primary screen (AID 1184);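 further: parasites grown inside human red blood cells in medium with human serum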
# Study conditions: P. falciparum 3D7 growth, 3 d, higher = more signal
For each record, write down the corresponding z-score.
Kindly provide the number alone.

// lookup z-score for O=C1NC(=O)C2C1C=CC(C(O)C1CC=CCC1)N2Nc1ccccn1 (stereo not given)
0.45

Need z-score of C=CC[C@]1(C(N)=O)N=C(c2ccc(OCCCO)cc2)O[C@H]1c1ccccc1 , thanks.
-1.09

Dear colleague, I am looking for the recorded z-score of the following compound: COC(=O)[C@@]1(Cc2ccc(OC)cc2)[C@H]2c3cc(C(=O)N(C)C)n(Cc4ccc(C(F)(F)F)nc4)c3C[C@H]2CN1C(=O)c1ccccc1
0.526

Entry under review: CCN(CC)c1ccc(N2CC=CC34O[C@@H]5C=CCOC(=O)[C@@H]5[C@H]3C(=O)N(CCCCCCO)[C@@H]4C2=O)cc1 (stereo not given in full) . Reported z-score?
-0.897

Any idea what its z-score is? The compound is COc1cc2c(cc1O)C=[N+](Cc1cc3c(cc1Br)OCO3)CC2
-1.88

Hey, just so you know, these numbers are from PubChem BioAssay.
